- Tested on: HBsAg
- PROTOCOL: HBsAg assay (CLIA of secreted HBsAg in HepG2.2.15 culture supernatant)
- Assay type: cell-based, HBV
- RUN PARAMETERS: Hepatitis B virus, HepG2.2.15, read-out: IC50 (HBsAg assay)
Reported log10 IC50 values for the following molecules.
Response schema: value (number) is log10 of IC50 in units of µM.

Query :: Recorded log10 IC50 of COCCOc1ccc(C(=O)N2CCc3nc(-c4ccccn4)ncc3C2)cc1F , please.
Result :: 1.30

Query :: Recorded log10 IC50 of Cc1ccc(C(=O)N2CCc3nc(-c4ccccn4)ncc3C2)cc1F , please.
Result :: 0.97

Query :: Recorded log10 IC50 of COc1cc(OC)cc(C(=O)N2CCc3nc(-c4ccccn4)ncc3C2)c1 , please.
Result :: 0.95

Query :: Recorded log10 IC50 of COc1ccc(C(=O)N2CCc3nc(-c4ccccn4)ncc3C2)nc1 , please.
Result :: 1.53

For the next question, use this molecule.
Query :: Recorded log10 IC50 of COCCCOc1ccc(C(=O)N2CCc3nc(-c4ccccn4)ncc3C2)cc1Cl , please.
Result :: 0.50

----------
- Tested on: HBsAg
- PROTOCOL: HBsAg assay (CLIA of secreted HBsAg in HepG2.2.15 culture supernatant)
- Format: cell-based, HBV
- RUN PARAMETERS: Hepatitis B virus, HepG2.2.15, read-out: IC50 (HBsAg assay)
pIC50: −log10 of the molar value.
Think of 5 as a floor: if pIC50 stands on it or above, it is Met; beneath it, Not met.

Query :: Identify whether the reported pIC50 of the following molecule is 5 or greater: COCCCOc1ccc(C(=O)N2CCc3nc(-c4ncccn4)ncc3C2C)cc1Cl (stereo not drawn) [Example 40]
Result :: Met

Query :: Identify whether the reported pIC50 of the following molecule is 5 or greater: COc1ccc(C(=O)N2CCc3nc(-c4ccccn4)ncc3C2)cc1Cl [Example 21]
Result :: Met

Query :: Identify whether the reported pIC50 of the following molecule is 5 or greater: COCCCOc1ccc(C(=O)N2CCc3nc(-c4ccccn4)ncc3C2)cc1F [Example 15]
Result :: Met

Query :: Identify whether the reported pIC50 of the following molecule is 5 or greater: COc1ccc(C(=O)N2CCc3nc(-c4ccccn4)ncc3C2C)s1 (stereo not drawn) [Example 58]
Result :: Met

Query :: Identify whether the reported pIC50 of the following molecule is 5 or greater: CCC1c2cnc(-c3ccccn3)nc2CCN1C(=O)c1ccc(OC)c(OC)c1 (single isomer, unassigned; (-)) [Example 35]
Result :: Met

---
Query :: Identify whether the reported pIC50 of the following molecule is 5 or greater: COc1ccc(C(=O)N2CCc3nc(-c4ccccn4)ncc3C2)cc1OC [Example 22]
Result :: Not met

Query :: Identify whether the reported pIC50 of the following molecule is 5 or greater: Cc1ccc(C(=O)N2CCc3nc(-c4ccccn4)ncc3C2)nc1 [Example 27]
Result :: Not met

Query :: Identify whether the reported pIC50 of the following molecule is 5 or greater: O=C(c1ccc(O)c(Cl)c1)N1CCc2nc(-c3ccccn3)ncc2C1 [Example 23]
Result :: Not met

Query :: Identify whether the reported pIC50 of the following molecule is 5 or greater: COc1ccc2[nH]nc(C(=O)N3CCc4nc(-c5ncccn5)ncc4C3C)c2c1 (stereo not drawn) [Example 66]
Result :: Met

Query :: Identify whether the reported pIC50 of the following molecule is 5 or greater: CC1c2cnc(-c3ccccn3)nc2CCN1C(=O)c1ccc2[nH]ncc2c1 (stereo not drawn) [Example 47]
Result :: Met

Query :: Identify whether the reported pIC50 of the following molecule is 5 or greater: O=C(c1cc(F)cc(F)c1)N1CCc2nc(-c3ccccn3)ncc2C1 [Example 37]
Result :: Not met

Query :: Identify whether the reported pIC50 of the following molecule is 5 or greater: Cc1csc(C(=O)N2CCc3nc(-c4ccccn4)ncc3C2)c1 [Example 32]
Result :: Met

Query :: Identify whether the reported pIC50 of the following molecule is 5 or greater: Cc1csc(C(=O)N2CCc3nc(-c4ccccn4)ncc3C2C)c1 (stereo not drawn) [Example 41]
Result :: Met

Query :: Identify whether the reported pIC50 of the following molecule is 5 or greater: O=C(c1ccc([N+](=O)[O-])cc1)N1CCc2nc(-c3ccccn3)ncc2C1 [Example 3]
Result :: Not met

Values were extracted from patent US10968217B2.
